# System under test: human GABA A receptor α5β3γ2 (Homo sapiens (Human), UniProt P18507+P31644)
# Assay notes: [3H]flumazenil competition binding assay, human GABA A α5β3γ2 receptors expressed in HEK293 cells
# Run parameters: human receptor; displacement of [3H]flumazenil (0.5 nM); means of two determinations; read-out: hKi GABAAa5
Kindly state pKi for each of the entries shown.
Note on pKi: it is the negative log10 of concentration, concentration in mol/L.

Could you share what pKi was measured for `COC(=O)c1cnc(OCc2c(-c3ccccc3)noc2C)c(Br)c1` , tested on human GABA A receptor α5β3γ2 (Homo sapiens (Human), UniProt P18507+P31644)? 7.46

Could you share what pKi was measured for `COC(=O)c1ccc(NCc2c(-c3cccc(F)c3)noc2C)nc1` , tested on human GABA A receptor α5β3γ2 (Homo sapiens (Human), UniProt P18507+P31644)? 7.16

Could you share what pKi was measured for `Cc1onc(-c2ccccc2)c1COc1ccc(C(=O)NC2CCOCC2)cn1` , tested on human GABA A receptor α5β3γ2 (Homo sapiens (Human), UniProt P18507+P31644)? 8.68

Could you share what pKi was measured for `Cc1onc(-c2ccccc2)c1COc1ccc(NC(=O)C2CC2)cn1` , tested on human GABA A receptor α5β3γ2 (Homo sapiens (Human), UniProt P18507+P31644)? 8.00

Could you share what pKi was measured for `Cc1onc(-c2ccccc2)c1COc1cc(C(=O)NCC(F)(F)F)ccn1` , tested on human GABA A receptor α5β3γ2 (Homo sapiens (Human), UniProt P18507+P31644)? 7.42

Could you share what pKi was measured for `Cc1onc(-c2ccccc2)c1COc1ccc(C(=O)NC2CCS(=O)(=O)CC2)cn1` , tested on human GABA A receptor α5β3γ2 (Homo sapiens (Human), UniProt P18507+P31644)? 8.31

Could you share what pKi was measured for `Cc1onc(-c2ccccc2)c1COc1ccc(C(=O)NCCOC(C)C)cn1` , tested on human GABA A receptor α5β3γ2 (Homo sapiens (Human), UniProt P18507+P31644)? 7.38

Could you share what pKi was measured for `Cc1onc(-c2ccccc2)c1COc1ccc(C(=O)NCc2cc(C3CC3)[nH]n2)cn1` , tested on human GABA A receptor α5β3γ2 (Homo sapiens (Human), UniProt P18507+P31644)? 7.67

Could you share what pKi was measured for `Cc1onc(-c2ccccn2)c1COc1ccc(C(=O)N2CCS(=O)(=O)CC2)cn1` , tested on human GABA A receptor α5β3γ2 (Homo sapiens (Human), UniProt P18507+P31644)? 8.00

Could you share what pKi was measured for `Cc1onc(-c2ccccc2)c1COc1ccc(C(=O)Nc2ccccc2)cn1` , tested on human GABA A receptor α5β3γ2 (Homo sapiens (Human), UniProt P18507+P31644)? 7.42

Could you share what pKi was measured for `Cc1onc(-c2ccccc2)c1COc1ccc(C(=O)NCCF)cn1` , tested on human GABA A receptor α5β3γ2 (Homo sapiens (Human), UniProt P18507+P31644)? 8.36

Could you share what pKi was measured for `CNC(=O)c1ccc(OCc2conc2-c2ccc(F)cn2)nc1` , tested on human GABA A receptor α5β3γ2 (Homo sapiens (Human), UniProt P18507+P31644)? 7.73

Could you share what pKi was measured for `O=C(NCCO)c1ccc(OCc2c(-c3ccccc3)noc2C(F)(F)F)nc1` , tested on human GABA A receptor α5β3γ2 (Homo sapiens (Human), UniProt P18507+P31644)? 7.47

Could you share what pKi was measured for `COC(=O)c1ccc(NCc2c(-c3ccc(F)cc3)noc2C)nc1` , tested on human GABA A receptor α5β3γ2 (Homo sapiens (Human), UniProt P18507+P31644)? 7.59

Could you share what pKi was measured for `CC(C)(CO)NC(=O)c1ccc(OCc2conc2-c2ccc(F)cn2)nc1` , tested on human GABA A receptor α5β3γ2 (Homo sapiens (Human), UniProt P18507+P31644)? 7.35

Could you share what pKi was measured for `Cc1onc(-c2ccccc2)c1COc1ccc(C(=O)N[C@H]2CCOC2)cn1` , tested on human GABA A receptor α5β3γ2 (Homo sapiens (Human), UniProt P18507+P31644)? 8.80

Could you share what pKi was measured for `Cc1nnc(-c2ccc(OCc3c(-c4ccccc4)noc3C)nc2)[nH]1` , tested on human GABA A receptor α5β3γ2 (Homo sapiens (Human), UniProt P18507+P31644)? 8.96

Could you share what pKi was measured for `Cc1onc(-c2ccccc2)c1COc1ccc(C(=O)N[C@H](C)CO)cn1` , tested on human GABA A receptor α5β3γ2 (Homo sapiens (Human), UniProt P18507+P31644)? 8.77

* * *

Kindly state pKi for each of the entries shown.
# System under test: human GABA A receptor α5β3γ2 (Homo sapiens (Human), UniProt P18507+P31644)
# Assay notes: [3H]flumazenil competition binding assay, human GABA A α5β3γ2 receptors expressed in HEK293 cells
# Run parameters: human receptor; displacement of [3H]flumazenil (0.5 nM); means of two determinations; read-out: hKi GABAAa5
# Description: The affinity of compounds at GABA A receptor subtypes was measured by competition for [3H]flumazenil (85 Ci/mmol; Roche) binding to HEK293 cells expressing rat (stably transfected) or human (transiently transfected) receptors of composition α1β3γ2, α2β3γ2, α3β3γ2 and α5β3γ2. […]
Note on pKi: it is the negative log10 of concentration, concentration in mol/L.

Tell me the measured pKi of `O=C(NCC(F)(F)F)c1ccc(OCc2c(-c3ccc(F)cc3)noc2C(F)(F)F)nc1` , please. 7.24

Tell me the measured pKi of `Cc1onc(-c2ccc(Cl)cc2)c1COc1ccc(C(=O)NC(C)C)cn1` , please. 9.15

Tell me the measured pKi of `Cc1onc(-c2ccc(F)cn2)c1COc1ccc(C(=O)N2CCS(=O)(=O)CC2)cn1` , please. 8.92

Tell me the measured pKi of `Cc1onc(-c2cccc(F)c2)c1CNc1ccc(C(=O)NC2CC2)cn1` , please. 7.71

Tell me the measured pKi of `Cc1onc(-c2ccccn2)c1COc1ccc(C(=O)NCC(F)(F)F)cn1` , please. 8.96

Tell me the measured pKi of Cc1onc(-c2ccccc2)c1COc1ccc(C(=O)NCC2CCCOC2)cn1 (stereo not drawn) , please. 7.93

Tell me the measured pKi of `Cc1onc(-c2ccccc2F)c1COc1ccc(C(=O)NCC(F)(F)F)cn1` , please. 8.35

Tell me the measured pKi of `Cc1onc(-c2ccncn2)c1COc1ccc(C(=O)NC(C)C)cn1` , please. 8.52

Tell me the measured pKi of `Cc1onc(-c2ccccc2)c1COc1ccc(C(=O)NC2(C)COC2)cn1` , please. 8.85

* * *

# System under test: human GABA A receptor α5β3γ2 (Homo sapiens (Human), UniProt P18507+P31644)
# Assay notes: [3H]flumazenil competition binding assay, human GABA A α5β3γ2 receptors expressed in HEK293 cells
# Run parameters: human receptor; displacement of [3H]flumazenil (0.5 nM); means of two determinations; read-out: hKi GABAAa5
Observation type: log10 of Ki (log10 of the value in nM)
Response schema: value (number) is log10 of Ki in units of nM.

Tell me the measured log10 of Ki of `Cc1onc(-c2ccncn2)c1COc1ccc(C(=O)NCCO)cn1` , please. 0.78

Tell me the measured log10 of Ki of `Cc1onc(-c2ccc(Cl)cn2)c1COc1ccc(C(=O)NC2CCOCC2)cn1` , please. -0.52

Tell me the measured log10 of Ki of `COC(=O)c1ccc(OCc2c(-c3cccc(F)c3)noc2C)nc1` , please. 1.24

Tell me the measured log10 of Ki of `O=C(NC1CC1)c1ccc(OCc2conc2-c2ccc(Cl)cc2)nc1` , please. 1.09

Tell me the measured log10 of Ki of `Cc1onc(-c2ccncc2)c1COc1ccc(C(=O)NC(C)C)cn1` , please. 0.65

* * *

Kindly state Ki for each of the entries shown.
# System under test: human GABA A receptor α5β3γ2 (Homo sapiens (Human), UniProt P18507+P31644)
# Assay notes: [3H]flumazenil competition binding assay, human GABA A α5β3γ2 receptors expressed in HEK293 cells
# Run parameters: human receptor; displacement of [3H]flumazenil (0.5 nM); means of two determinations; read-out: hKi GABAAa5
# value in nM; strip the unit string

Tell me the measured Ki of `Cc1onc(-c2ccccc2F)c1COc1ccc(C(=O)NC(C)C)cn1` , please. 3.6

Tell me the measured Ki of CCN1CCCC(NC(=O)c2ccc(OCc3c(-c4ccccc4)noc3C)nc2)C1 (stereo not shown) , please. 5

Tell me the measured Ki of `Cc1onc(-c2ccccc2F)c1COc1ccc(C(=O)NC2CCOCC2)cn1` , please. 4.6

Tell me the measured Ki of `Cc1onc(-c2ccccc2)c1COc1ccc(C(=O)NCc2nc(C3CC3)no2)cn1` , please. 13.1

Tell me the measured Ki of `Cc1onc(-c2ccccc2)c1COc1cccc(C#N)n1` , please. 20.9

Tell me the measured Ki of `Cc1onc(-c2ccccc2)c1COc1ccc(C(=O)N[C@H](CO)C(C)C)cn1` , please. 1.8

Tell me the measured Ki of `CCNC(=O)c1ccc(OCc2c(-c3ccc(F)cn3)noc2C)nc1` , please. 0.5
